Where a name gives a salt, the structure may show the parent alone.
melting point overview
measurement-type: melting point

| compound | observed-value |
| --- | --- |
| Cc1cc(N2CCN(C(C)C)CC2)nn2c(-c3ccnc4[nH]ccc34)c(-c3ccc(F)cc3)nc12 [Compound 15] | 285 to 291 °C |
| Cc1cc(N2C[C@@H]3CCCN(C)[C@@H]3C2)nn2c(-c3ccnc4[nH]ccc34)c(-c3ccc(F)cc3)nc12 [Compound 33] | > 260 °C |
| C[C@@H]1CN(c2ccc3nc(-c4ccc(F)cc4)c(-c4ccnc5[nH]ccc45)n3n2)C[C@H](C)N1 [Compound 11] | 288 to 290 °C |
| Fc1ccc(-c2nc3ccc(N4CCN[C@@H](c5ccccc5)C4)nn3c2-c2ccnc3[nH]ccc23)cc1 (as salt: HCl) [Compound 25] | 215 °C (dec.) |
| Cc1cc(N2CCNC(C)(C)C2)nn2c(-c3ccnc4[nH]ccc34)c(-c3cccc(F)c3)nc12 [Compound 9] | 270 to 273 °C |
| CN1C[C@@H]2CN(c3ccc4nc(-c5ccc(F)cc5)c(-c5ccnc6[nH]ccc56)n4n3)C[C@@H]2C1 [Compound 28] | 238 to 239 °C |
| OCCN1C[C@@H]2CN(c3ccc4nc(-c5ccc(F)cc5)c(-c5ccnc6[nH]ccc56)n4n3)C[C@@H]2C1 [Compound 30] | 175 to 180 °C |

* * *

Measured IC50, listed per entry for reference.
# measured-target: human CK1 delta (Homo sapiens)
# Sequence (P48730 whole entry): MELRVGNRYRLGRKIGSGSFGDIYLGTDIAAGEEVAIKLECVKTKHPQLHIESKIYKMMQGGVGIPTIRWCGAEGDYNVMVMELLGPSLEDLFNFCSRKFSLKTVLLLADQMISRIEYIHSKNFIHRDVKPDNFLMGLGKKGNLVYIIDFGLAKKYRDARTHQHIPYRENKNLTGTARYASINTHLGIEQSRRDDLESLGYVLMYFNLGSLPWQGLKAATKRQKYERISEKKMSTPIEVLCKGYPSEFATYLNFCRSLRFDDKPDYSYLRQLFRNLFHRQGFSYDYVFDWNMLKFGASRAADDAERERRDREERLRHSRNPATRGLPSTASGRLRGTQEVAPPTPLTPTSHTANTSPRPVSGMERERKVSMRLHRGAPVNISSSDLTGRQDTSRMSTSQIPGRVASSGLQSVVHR
# experimental-protocol: FRET fluorescence test (Z'Lyte kinase assay Kit), peptide substrate SER/THR 11
# experimental-setup: peptide substrate 2 μM, ATP at 4 times the KM
measurement-type: IC50 (nM)

| structure-as-smiles | measured-target | observed-value |
| --- | --- | --- |
| Cc1cc(N2C[C@H]3CN(C)C[C@H]3C2)nn2c(-c3ccnc4[nH]ccc34)c(-c3ccc(F)cc3)nc12 | human CK1 delta (Homo sapiens) | 5 |
| Fc1ccc(-c2nc3ccc(N4CCC(N5CCCC5)CC4)nn3c2-c2ccnc3[nH]ccc23)cc1 | human CK1 delta (Homo sapiens) | 19 |

* * *

Where a name gives a salt, the structure may show the parent alone.
Measured melting point, listed per entry for reference.
measurement-type: melting point

| compound | observed-value |
| --- | --- |
| CN1C[C@@H]2C[C@H]1CN2c1ccc2nc(-c3ccc(F)cc3)c(-c3ccnc4[nH]ccc34)n2n1 [Compound 34] | 148 to 168 °C |
| Cc1cc(N2CCNC(C)(C)C2)nn2c(-c3ccnc4[nH]ccc34)c(-c3ccc(F)cc3)nc12 [Compound 10] | > 300 °C |
| Cc1cc(N2CCN(CC(C)(C)O)CC2)nn2c(-c3ccnc4[nH]ccc34)c(-c3ccc(F)cc3)nc12 [Compound 22] | 265 to 268 °C |
| CC(C)(O)CN1CCN(c2ccc3nc(-c4ccc(F)cc4)c(-c4ccnc5[nH]ccc45)n3n2)CC1 [Compound 20] | 273 to 276 °C |
| Cc1cc(N2C[C@H]3CCCN(C)[C@H]3C2)nn2c(-c3ccnc4[nH]ccc34)c(-c3ccc(F)cc3)nc12 [Compound 32] | > 260 °C |
| Cc1cc(N2CCN(CCO)CC2)nn2c(-c3ccnc4[nH]ccc34)c(-c3cccc(F)c3)nc12 [Compound 12] | 201 to 203 °C |
| Fc1ccc(-c2nc3ccc(N4CCN[C@H](c5ccccc5)C4)nn3c2-c2ccnc3[nH]ccc23)cc1 (as salt: HCl) [Compound 24] | 215 °C (dec.) |
| C[C@@H]1CN(c2ccc3nc(-c4ccc(F)cc4)c(-c4ccnc5[nH]ccc45)n3n2)CCN1 [Compound 6] | 285 to 287 °C |
| Fc1ccc(-c2nc3ccc(N4CCC(N5CCCC5)CC4)nn3c2-c2ccnc3[nH]ccc23)cc1 [Compound 36] | 261 to 264 °C |
| Cc1cc(N2C[C@H]3CN(CCO)C[C@H]3C2)nn2c(-c3ccnc4[nH]ccc34)c(-c3ccc(F)cc3)nc12 [Compound 31] | 271 to 275 °C |
| Cc1cc(N2CCNC3(CCCC3)C2)nn2c(-c3ccnc4[nH]ccc34)c(-c3ccc(F)cc3)nc12 [Compound 18] | 293 to 299 °C |
| Cc1cc(N2CCN(CC(C)(C)O)CC2)nn2c(-c3ccnc4[nH]ccc34)c(-c3cccc(F)c3)nc12 [Compound 21] | > 270 °C |
| CC(C)N1CCN(c2ccc3nc(-c4ccc(F)cc4)c(-c4ccnc5[nH]ccc45)n3n2)CC1 [Compound 14] | 271 to 273 °C |
| CC(C)(O)CCN1CCN(c2ccc3nc(-c4ccc(F)cc4)c(-c4ccnc5[nH]ccc45)n3n2)CC1 [Compound 23] | 73 to 75 °C |
